tgt: T1, AGS73.15 (MS497)
T1 construct: It carries a human IgG Fc (detected with anti-human IgG Fc)
method: flow cytometry, blocking of AGS73.15 binding to CD3ε on human T cells, % binding, the axis reads nM
Below, each entry is listed alongside its reported EC50.
Kindly provide the numeric value in pM only, without the unit symbol.

binder="6d59.id.1b76.1 (antibody, V domains shown, Anti-idiotypic antibody against 6d59) VH: DVKLVDSGGGLVKPGGSLKLSCAASGFTFSNYGMSWVRQTPEKRLEWVATISSGGYYTYYPDSVKGRFTISRDNAKNTLYLQMGSLKSEDTAMYYCSRDREGFGNYLGAMDYWGQGTSVTVSS VL: DIVLTQSPASLAVSLGQRATISCKASQSVDYDGNGYMNWYQQKPGQPPKLLIYAASNLESGIPARFSGSGSGTDFTLNIHPVEEEDAATYYCQQSNEDPYTFGGGTKLEIKR" quantityname=EC50 obsvalue=243

I have this binder here, 6d59.id.1b61.1 (antibody, V domains shown, Anti-idiotypic antibody against 6d59) VH: DVQLQESGPGLVKPSQSLSLTCSVTGYSITSSYYWNWIRQFPGNKLEWMGYIMYDGNNNYNPSLKNRISITRDTSKNQFFLKLNSVTTEDTATYYCARNMADYFGNTYDALDYWGQGTSVTVSS VL: DILLTQSPGSLAVSLGQRATISCKASQSADYGGDSYMSWYQQKPGQPPKLLIYAASNLESGTPARFSGSGSGTDFTLNIHPVEEEDAATYYCQQGNEDPWTFGGGTKLEIKR , and I need its recorded EC50. 368

Where do these numbers come from? They come from patent US20230057263A1.
